- targetSystem: Hypoxia-inducible factor 1-alpha (Homo sapiens)
- testMethodNotes: activators of HIF1alpha nuclear accumulation, confirmation, imaging, fluorescence, U2OS GFP-HIF1alpha (AID 434951)
- condition: U2OS GFP-HIF1alpha nuclear intensity, high-content imaging
Calls of active or inactive are those of the source.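 How the source made its calls: active means a fitted half-maximal concentration EC50 for the rise in nuclear signal no higher than ten times the top dose tested; inconclusive means flat fit with activity between 30% and 70%, or unusable fit; inactive means EC50 beyond ten times the top dose.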
Your answer must be one of the following: y for active, n for inactive

Would you please look over these solved cases?
                                   compound  classification
0               CCOC(=O)c1c(C)nc2cc(C)ccn12               n
1  O=C1CC(Nc2ccccc2)C(=O)N1Cc1ccccc1 (stereo unspecified)               n
2  COCCNC(=O)C(=O)NCC1OCCN1S(=O)(=O)c1cc(F)ccc1F (stereo unspecified)               n
3  CCCNC(=S)N1CCCC(c2nc3ccccc3[nH]2)C1 (stereo unspecified)               n
4  COCCn1c(-c2ccc(OC)cc2)cnc1SCC(=O)Nc1ccc(OC)cc1OC               n
5              Oc1c(N=Nc2ccccn2)ccc2ccccc12               y
6   CCN(CC)c1ccc(/C=N/NC(=O)c2ccoc2C)c(O)c1               y
7  COc1ccc(/C=C2\SC(=O)N(CCC(=O)N(C)C3CCS(=O)(=O)C3)C2=O)cc1 (stereo unspecified)               n
8  COC(CN(C(=O)CCl)C(C(=O)NC1CCCCC1)c1ccc(Cl)cc1)OC (stereo unspecified)               y
9         CCc1cc2c(=O)[nH]c(-c3ccccn3)nc2s1               y

Now turn to the next compound.
Hello, I am checking results. What call was entered for CCn1c(SCC(=O)Nc2nncs2)nnc1-c1ccco1 ?
n
